Source of measurements: ChEMBL document CHEMBL3044784

Catalogue of pIC50 readings, one per entry.
- targetUnderTest: Photosystem Q(B) protein (Poa annua, UniProt Q9XQA6)
- experimentNotes: Inhibition ofphotosystem II in s-triazine-susceptible Poa annua leaf thylakoid membrane assessed as reduction of photosynthetic electron transport
- experimentalSetup: read-out: I50
Note on units: pIC50 is unitless, being -log10 of a concentration expressed in mol/L.

molecule	pIC50
CCC(C)c1cc([N+](=O)[O-])cc([N+](=O)[O-])c1O (centres undefined)	5.40
O=c1[nH]c2c(c(=O)n1C1CCCCC1)CCC2	6.00
CN(C)C(=O)Nc1ccc(Cl)c(Cl)c1	6.89

// moving on: another record for pIC50
Per the record, `CCNc1nc(Cl)nc(NC(C)C)n1` has pIC50 of 6.80
